assay: chemical genetic growth profiling, strain panel (AID 1159580);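 further: tested at 20 µM; growth read once vehicle control cultures reached saturation at 30 °C; 1 = growth at the plate median or of vehicle wells; lower values mean less growth of the strain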
test-context: S. cerevisiae deletion strains, growth OD, locus YNR049C, strain mso1
About 2,000 (36%) of roughly 5,500 compounds were called active. Inconclusive results (about 18%) are left out. No stated cut-off is given here; in the data, active means normalized growth mostly below about 0.91 (no sharp cut-off); inconclusive means no clear call, values can overlap the other calls; inactive means mostly above about 0.92. This is one part of the list.
Possible outcomes: 1 (yes) = active, 0 (no) = inactive

compound="NC(=O)c1ncn(C2O[C@H](CO)[C@@H](O)[C@H]2O)c1N (some centres not stated)" qualitative_label="0 (no)"
compound=N[C@@H]1[C@@H](O)[C@H](O)[C@@H](CO)O[C@H]1O qualitative_label="0 (no)"
compound="CCN(CC)C(C)CN1c2ccccc2Sc2ccccc21 (configuration not stated)" qualitative_label="0 (no)"
compound=O=C(O)c1ccccc1C(=O)Nc1ccc(S(=O)(=O)Nc2nccs2)cc1 qualitative_label="0 (no)"
compound="OC[C@H]1OC([S-])[C@H](O)[C@@H](O)[C@@H]1O.[Au+] (some centres not stated)" qualitative_label="0 (no)"
compound=N#C/C(=C\c1cccc(O)c1)C(=O)O qualitative_label="0 (no)"
compound=O=[N+]([O-])c1cccc2c(Br)[nH]nc12 qualitative_label="0 (no)"
compound="C=C1C2CCC3(C)C(c4ccoc4)OC(=O)CC13OC1CC(OC(C)=O)C(C)(C)C(CC(=O)OC)C12C (configuration not stated)" qualitative_label="0 (no)"
compound=COc1cc([C@@H]2c3cc4c(cc3[C@H](OC(C)=O)[C@H]3COC(=O)[C@@H]23)OCO4)cc(OC)c1OC qualitative_label="0 (no)"
compound="C=C1C2=CC(=O)O[C@@H](c3ccoc3)[C@]2(C)CCC1[C@@]1(C)C=CC(=O)C(C)(C)[C@@H]1CC(=O)OC (some centres not stated)" qualitative_label="0 (no)"
compound="C=C1C2CC[C@@]3(C)[C@H](c4ccoc4)OC(=O)C[C@]13O[C@H]1CC(O)C(C)(C)C(CC(=O)OC)[C@@]21C (some centres not stated)" qualitative_label="0 (no)"
compound="NC(Cc1ccc(F)cc1)C(=O)O (configuration not stated)" qualitative_label="0 (no)"
compound=O=C(O)CCCOc1ccc(Cl)cc1Cl qualitative_label="0 (no)"
compound=CC(=O)N=c1sc(S(N)(=O)=O)nn1C qualitative_label="0 (no)"
compound="CC(=O)O[C@H]1C[C@@H](OC(C)=O)C(C)(C)C2CC(=O)[C@]3(C)C(CC[C@@]4(C)[C@H](c5ccoc5)OC(=O)[C@H]5O[C@]543)[C@]21C (some centres not stated)" qualitative_label="0 (no)"
compound="NCC(CC(=O)O)c1ccc(Cl)cc1 (configuration not stated)" qualitative_label="0 (no)"
compound=O=c1[nH]cnc2[nH]ncc12 qualitative_label="0 (no)"
compound="C[C@@H]1O[C@@H](O[C@H]2C[C@@H](O)[C@]3(CO)C4C(CC[C@]3(O)C2)[C@@]2(O)CC[C@H](C3=CC(=O)OC3)[C@@]2(C)C[C@H]4O)[C@H](O)[C@H](O)[C@H]1O (some centres not stated)" qualitative_label="0 (no)"
compound=CCN(CCCc1ccccc1)CCCc1ccccc1 qualitative_label="0 (no)"
compound=COc1ccc(C(=O)CC(=O)c2ccc(C(C)(C)C)cc2)cc1 qualitative_label="0 (no)"
compound=COc1c(Cl)ccc(Cl)c1C(=O)O qualitative_label="0 (no)"
compound=c1ccc2nc(N3CCNCC3)ccc2c1 qualitative_label="0 (no)"
compound="CN(C)CCC(c1ccc(Br)cc1)c1ccccn1 (configuration not stated)" qualitative_label="0 (no)"
compound=Cc1nc2ccccn2c(=O)c1CCN1CCC(C(=O)c2ccc(F)cc2)CC1 qualitative_label="0 (no)"
compound=CNC(=O)Oc1ccc2c(c1)[C@]1(C)CCN(C)[C@@H]1N2C qualitative_label="0 (no)"
compound=O=[N+]([O-])c1cccc2cn[nH]c12 qualitative_label="0 (no)"
compound=CC(=O)Nc1nnc(S(N)(=O)=O)s1 qualitative_label="0 (no)"
compound=CCCC(CCC)C(=O)O qualitative_label="0 (no)"
compound=Clc1ccc2c(c1)C(N1CCNCC1)=Nc1ccccc1O2 qualitative_label="0 (no)"
compound=c1ccc2c(c1)CN1CCCC1=N2 qualitative_label="0 (no)"
compound=N[C@H](Cc1ccccc1)C(=O)O qualitative_label="0 (no)"
compound=COc1ccc(C(=O)N2CCCC2=O)cc1 qualitative_label="0 (no)"
compound="C[C@H](CCC(=O)O)[C@H]1CCC2C3C(CC[C@@]21C)[C@@]1(C)CC[C@@H](O)C[C@H]1C[C@H]3O (some centres not stated)" qualitative_label="0 (no)"
compound="CC1(C)C(O)CC(O)C2(C)C1CC(O)C1(C)C2CCC2(C)C(c3ccoc3)OC(=O)C3OC321 (configuration not stated)" qualitative_label="0 (no)"
compound="CC1CCC2(OC1)OC1CC3C4CCC5C[C@@H](O)CCC5(C)C4=CCC3(C)C1[C@@H]2C (some centres not stated)" qualitative_label="0 (no)"
compound="CN(C)CCOC(=O)C(c1ccccc1)C1(O)CCCC1 (configuration not stated)" qualitative_label="0 (no)"
compound="C=Cc1c(C)c2[n-]c1=Cc1[n-]c(c(CC)c1C)C=c1[n-]c3c(c1C)C(=O)C(C(=O)[O-])C=3c1[n-]c(c(C)c1CCC(=O)[O-])C=2.[Cu] (configuration not stated)" qualitative_label="1 (yes)"
compound=CN1CCN(C2=Nc3ccccc3Oc3ccc(Cl)cc32)CC1 qualitative_label="0 (no)"
compound=S=P(N1CC1)(N1CC1)N1CC1 qualitative_label="0 (no)"
compound="CC(CN(C)C)CN1c2ccccc2Sc2ccccc21 (configuration not stated)" qualitative_label="0 (no)"
compound="CCCCS(=N)(=O)CCC(N)C(=O)O (configuration not stated)" qualitative_label="0 (no)"
compound=CO[C@]12C[C@@H](COC(=O)c3cncc(Br)c3)CN(C)[C@@H]1Cc1cn(C)c3cccc2c13 qualitative_label="0 (no)"
